# Test Summary: Selectivity index, ratio of IC50 for human TZM-bl cells to IC50 for HIV1 NL4-3 infected in human TZM-bl cells
# Assay type: toxicity, cell-based
# Test Settings: uninfected versus infected with HIV1 NL4-3, read-out: Ratio IC50
Quantity Kind: selectivity ratio

Compound: O=c1[nH]c2cc(S(=O)(=O)Nc3ccc4[nH]ncc4c3)ccc2o1
Quantity Kind: selectivity ratio
Endpoint Result: 5.1

###

# Tested on: Human immunodeficiency virus 1
# Test Summary: Inhibition of HIV-1 nucleocapsid protein (12 to 55 residues) assessed a sreduction in TAR29/cTAR29 duplex formation preincubated for 15 mins followed by TAR29/cTAR29 addition and measured after 15 mins by nucleocapsid annealing mediated electrophoresis assay
Active and inactive are the calls of the source. The rule behind the calls is not given here.
Outcomes: active, inactive

Compound: O=C(CSc1ccccn1)c1ccc(O)c(O)c1
Tested On: Human immunodeficiency virus 1
Discrete Label: inactive
//
Compound: COc1cccc(-n2c(CCn3cccn3)n[nH]c2=O)c1
Tested On: Human immunodeficiency virus 1
Discrete Label: inactive
//
Compound: N=C(N)c1ccc(N2CCCCC2)cc1
Tested On: Human immunodeficiency virus 1
Discrete Label: inactive
//
Compound: O=C(O)CCC1NC(=O)N(Cc2ccccc2)C1=O (centres undefined)
Tested On: Human immunodeficiency virus 1
Discrete Label: inactive
//
Compound: NC(=O)c1ccn(COc2ccccc2F)n1
Tested On: Human immunodeficiency virus 1
Discrete Label: inactive
//
Compound: COc1ccc2[nH]c(C(N)=O)cc2c1
Tested On: Human immunodeficiency virus 1
Discrete Label: inactive
//
Compound: O=C(Cn1[nH]cc2c(=O)ncnc1-2)NC1(c2ccccc2)CCC1
Tested On: Human immunodeficiency virus 1
Discrete Label: inactive
//
Compound: O=C1CN(C(=O)Cc2n[nH]c(=O)c3ccccc23)CCN1
Tested On: Human immunodeficiency virus 1
Discrete Label: inactive
//
Compound: COc1ccccc1-c1nccn1CCc1n[nH]c(=O)[nH]1
Tested On: Human immunodeficiency virus 1
Discrete Label: inactive
//
Compound: Cc1cc(COc2ccc(Cl)cc2C(N)=O)no1
Tested On: Human immunodeficiency virus 1
Discrete Label: inactive
//
Compound: Nc1cccc(C(=O)NCCCC(=O)O)c1
Tested On: Human immunodeficiency virus 1
Discrete Label: inactive
//
Compound: Cc1ccc(-c2nn(CCC(=O)O)cc2/C=C2\SC(=N)NC2=O)cc1
Tested On: Human immunodeficiency virus 1
Discrete Label: inactive
//
Compound: COc1cccc(CNn2cnnc2S)c1OCc1ccccc1
Tested On: Human immunodeficiency virus 1
Discrete Label: inactive
//
Compound: Cc1cc(CCCNc2nnnn2-c2ccccc2)n[nH]1
Tested On: Human immunodeficiency virus 1
Discrete Label: inactive
//
Compound: N#Cc1cnc(SCc2cccc(C(N)=O)c2)nc1N
Tested On: Human immunodeficiency virus 1
Discrete Label: inactive
//
Compound: O=C(CCC1NC(=O)c2ccccc21)Nc1nc[nH]n1 (centres undefined)
Tested On: Human immunodeficiency virus 1
Discrete Label: inactive
//
Compound: NC(=O)c1ccc(CNC(=O)Cn2ccc(=O)[nH]c2=O)cc1
Tested On: Human immunodeficiency virus 1
Discrete Label: inactive
//
Compound: Cc1nc2c(c(=O)[nH]1)CCN(S(=O)(=O)c1cccc3nsnc13)C2
Tested On: Human immunodeficiency virus 1
Discrete Label: inactive
//
Compound: O=C(COc1cccc(Cl)c1Cl)N1CCNC1=O
Tested On: Human immunodeficiency virus 1
Discrete Label: inactive
//
Compound: COc1ccc(O)c(C(=O)c2cnc3[nH]c(=O)[nH]c(=O)c3c2)c1
Tested On: Human immunodeficiency virus 1
Discrete Label: inactive
//
Compound: O=C(O)C1CCN(c2ncnc3nc[nH]c23)CC1
Tested On: Human immunodeficiency virus 1
Discrete Label: inactive
//
Compound: O=C(CO)N1CCCC(c2[nH]ncc2Cc2ccccc2)C1 (centres undefined)
Tested On: Human immunodeficiency virus 1
Discrete Label: inactive
//
Compound: c1ccc(-c2ccnc3[nH]ccc23)c(OCCn2ccnc2)c1
Tested On: Human immunodeficiency virus 1
Discrete Label: inactive
//
Compound: O=C1N=NC(=S)N1c1ccc(Cl)c(Cl)c1
Tested On: Human immunodeficiency virus 1
Discrete Label: active
//
Compound: Cc1cc(C)n(CCOC(=O)c2ccc(N3CCNC3=O)cc2)n1
Tested On: Human immunodeficiency virus 1
Discrete Label: inactive
//
Compound: N#Cc1ccc(CSc2nc3[nH]ncc3c(=O)[nH]2)cc1
Tested On: Human immunodeficiency virus 1
Discrete Label: inactive
//
Compound: Cc1nc[nH]c1-c1nccn1CCCc1ccccc1
Tested On: Human immunodeficiency virus 1
Discrete Label: inactive
//
Compound: CC(CCc1ccccc1)NC(=O)c1ccc[nH]c1=O (centres undefined)
Tested On: Human immunodeficiency virus 1
Discrete Label: inactive
//
Compound: O=c1cc(Cc2nnc(S)n2-c2ccc(Cl)cc2)[nH]c(=O)[nH]1
Tested On: Human immunodeficiency virus 1
Discrete Label: active
